From: patent US10618918B2

# System: KP1009 CTX-M-15
# experiment: Aztreonam potentiation (MPC@4), strain KP1009 CTX-M-15
# test_context: minimum BLI concentration inhibiting growth with aztreonam 4 μg/mL; tested up to 40 μg/mL

>  <compound>
O=C(O)c1c(CNc2nncs2)ccc2c1OB(O)CC2 [Compound 64]

>  <AZT MPC4 CTX-M-15 KP1009>
X (X = MPC@4 ≤ 5 μg/mL)

$$$$
>  <compound>
O=C([O-])c1c(CSC2CNC2)ccc2c1O[B-](O)(O)CC2.[Na+].[Na+] [Compound 19]

>  <AZT MPC4 CTX-M-15 KP1009>
X (X = MPC@4 ≤ 5 μg/mL)

$$$$
>  <compound>
O=C([O-])c1c(OC(F)F)ccc2c1O[B-](O)(O)CC2.[Na+].[Na+] [Compound 56]

>  <AZT MPC4 CTX-M-15 KP1009>
X (X = MPC@4 ≤ 5 μg/mL)

$$$$

---

# System: ec308 SHV-5
# experiment: Aztreonam potentiation (MPC@4), strain ec308 SHV-5
# test_context: minimum BLI concentration inhibiting growth with aztreonam 4 μg/mL; tested up to 40 μg/mL
readout: AZT MPC4 SHV-5 ec308

Record excerpt, results attached:
>  <compound>
C#CCOc1ccc2c(c1C(=O)O)OB(O)CC2

>  <tested_on>
ec308 SHV-5

>  <AZT MPC4 SHV-5 ec308>
X (X = MPC@4 ≤ 5 μg/mL)

$$$$
>  <compound>
C[S+]([O-])c1ccc2c(c1C(=O)[O-])O[B-](O)(O)CC2.[Na+].[Na+] (stereo not drawn)

>  <tested_on>
ec308 SHV-5

>  <AZT MPC4 SHV-5 ec308>
X (X = MPC@4 ≤ 5 μg/mL)

$$$$
>  <compound>
O=C(O)c1c(CNc2nncs2)ccc2c1OB(O)CC2

>  <tested_on>
ec308 SHV-5

>  <AZT MPC4 SHV-5 ec308>
X (X = MPC@4 ≤ 5 μg/mL)

$$$$
>  <compound>
O=C(O)c1c(F)ccc2c1OB(O)COC2

>  <tested_on>
ec308 SHV-5

>  <AZT MPC4 SHV-5 ec308>
Z (Z = MPC@4 > 20 μg/mL)

$$$$

Shifting focus to the compound that follows.
Sample `COc1ccc2c(c1P(=O)(O)O)OB(O)CC2` — what was its AZT MPC4 SHV-5 ec308?
Z (Z = MPC@4 > 20 μg/mL)

---

# tested_on: purified class A, C and D enzymes (β-lactamases) (Acinetobacter baumannii)
# Construct: rows headed: Ki (OXA-23, NCF), uM; other: purified OXA-23; nitrocefin (NCF) as reporter substrate
# experiment: biochemical
# test_context: purified OXA-23; nitrocefin (NCF) as reporter substrate
compounds and their reported Ki

Record excerpt, results attached:
>  <smiles_code>
[2H]C1([2H])Cc2ccc(OC)c(C(=O)[O-])c2O[B-]1(O)O.[Na+].[Na+]

>  <readout>
Ki

>  <assay_value>
< 0.1 µM

$$$$
>  <smiles_code>
O=C(O)c1c(CNc2nncs2)ccc2c1OB(O)CC2

>  <readout>
Ki

>  <assay_value>
< 0.1 µM

$$$$
>  <smiles_code>
CS(=O)(=O)Nc1ccc2c(c1C(=O)[O-])O[B-](O)(O)CC2.[Na+].[Na+]

>  <readout>
Ki

>  <assay_value>
< 0.1 µM

$$$$

Shifting focus to the compound that follows.
Sample `CSc1ccc2c(c1C(=O)[O-])O[B-](O)(O)CC2.[Na+].[Na+]` — what was its Ki?
< 0.1 µM
